- target.or.system: GST-TMEM106B (truncated, comprising amino acids 122-210 of SEQ ID NO:1) (Homo sapiens, UniProt Q9NUM4)
- Sequence (Q9NUM4 122-210): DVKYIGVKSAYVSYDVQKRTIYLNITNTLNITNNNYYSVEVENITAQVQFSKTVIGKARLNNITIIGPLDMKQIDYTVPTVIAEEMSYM
- assay.comment: Pre-mix epitope binning of anti-TMEM106B antibodies (Carterra / Lake Pharma)
- Format: binding
- applied.conditions: epitope bin number; pre-mix binning on truncated GST-TMEM106B
Let's look at some molecules and their measured Binding Community/Bin.
quantity.name: Binding Community/Bin

molecule="TM-29: anti-TMEM106B monoclonal antibody; CDR-H1-3 SEQ ID NO: 20, 60, 103; CDR-L1-3 SEQ ID NO: 143, 168, 207 (antibody, V domains shown) VH: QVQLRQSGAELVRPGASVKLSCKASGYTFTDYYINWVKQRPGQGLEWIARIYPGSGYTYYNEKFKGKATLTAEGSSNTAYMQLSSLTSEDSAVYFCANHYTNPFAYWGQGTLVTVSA VL: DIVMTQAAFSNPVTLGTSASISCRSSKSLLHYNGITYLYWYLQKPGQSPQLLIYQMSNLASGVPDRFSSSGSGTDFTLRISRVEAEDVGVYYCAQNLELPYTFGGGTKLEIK" obs_value=4
molecule="TM-13: anti-TMEM106B monoclonal antibody; CDR-H1-3 SEQ ID NO: 14, 47, 90; CDR-L1-3 SEQ ID NO: 131, 171, 195 (antibody, V domains shown) VH: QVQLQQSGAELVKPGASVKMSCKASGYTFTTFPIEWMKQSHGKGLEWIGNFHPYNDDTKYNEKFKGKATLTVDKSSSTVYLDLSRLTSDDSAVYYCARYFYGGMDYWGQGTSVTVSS VL: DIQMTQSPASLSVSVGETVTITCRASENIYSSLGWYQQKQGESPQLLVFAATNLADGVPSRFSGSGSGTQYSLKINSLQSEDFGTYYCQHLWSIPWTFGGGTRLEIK" obs_value=2
